runDescription: RP, Waters ACQUITY UPLC HSS T3, 100 × 2.1 mm, 1.8 µm, 30 °C, 0.3 mL/min, estimated dead time 0.73 min; A: water + 0.1% formic acid, pH 3; B: methanol + 0.1% formic acid, pH 3; gradient (min/%B) 0/0 6/0 56/100 60/100
measurementConditions: stereoisomer not certain
experimentalReadout: LC retention time (min)

INSERT INTO measurements (molecule, unitslabel, measvalue) VALUES
  ('CC(C)(C)c1cc(O)ccc1O [tert-butylhydroquinone]', 'min', 30.5),
  ('Oc1ccc(C2Oc3cc(O)cc4c3C2c2cc(O)cc(O)c2C(c2ccc(O)cc2)C4C2c3cc(O)cc4c3C(c3cc(O)cc(O)c3C2c2ccc(O)cc2)C(c2ccc(O)cc2)O4)cc1 (centres undefined)', 'min', 25.9),
  ('C=C(C)C1CCC2(C(=O)O)CCC3(C)C(CCC4C5(C)CCC(O)C(C)(C)C5CCC43C)C12 (centres undefined)', 'min', 53.2),
  ('CC(=O)CCc1ccc(O)cc1 [4-(4-hydroxyphenyl)butan-2-one]', 'min', 24.6);

###

runDescription: RP, Waters ACQUITY UPLC HSS T3, 100 × 2.1 mm, 1.8 µm, 30 °C, 0.3 mL/min, estimated dead time 0.73 min; A: water + 0.1% formic acid, pH 3; B: methanol + 0.1% formic acid, pH 3; gradient (min/%B) 0/0 6/0 56/100 60/100
measurementConditions: stereoisomer not certain
experimentalReadout: log10(LC retention time) (log10 of the value in min)

INSERT INTO assay_data (compound, experimentalreadout, measvalue) VALUES
  ('COc1cc(-c2oc3cc(O)cc(O)c3c(=O)c2OC2OC(CO)C(O)C(O)C2O)cc(OC)c1O (stereo not drawn) [syringetin-3-galactoside]', 'log10(LC retention time)', 1.50),
  ('CC1OC(OCC2OC(Oc3c(-c4ccc(O)cc4)oc4cc(O)cc(O)c4c3=O)C(O)C(O)C2O)C(O)C(O)C1O (stereo not drawn) [kaempferol 3-rutinoside]', 'log10(LC retention time)', 1.50),
  ('CCCN [propylamine]', 'log10(LC retention time)', 0.18),
  ('C=CC1=C(C)C(=Cc2[nH]c(Cc3[nH]c(C=C4NC(=O)C(C)=C4C=C)c(C)c3CCC(=O)O)c(CCC(=O)O)c2C)NC1=O [bilirubin]', 'log10(LC retention time)', 1.75),
  ('O=c1oc2c(O)c(O)cc3c(=O)oc4c(O)c(O)cc1c4c23 [ellagic acid]', 'log10(LC retention time)', 1.48),
  ('N[C@@H](CS)C(=O)O [L-cysteine]', 'log10(LC retention time)', 0.09),
  ('Oc1ccc(C2c3c(O)cc(O)cc3C3C(c4ccc(O)cc4)c4c(O)cc(O)cc4C23)cc1 (stereo not drawn) [pallidol]', 'log10(LC retention time)', 1.41),
  ('c1ccc2[nH]ccc2c1 [indole]', 'log10(LC retention time)', 1.45);

###

runDescription: RP, Waters ACQUITY UPLC HSS T3, 100 × 2.1 mm, 1.8 µm, 30 °C, 0.3 mL/min, estimated dead time 0.73 min; A: water + 0.1% formic acid, pH 3; B: methanol + 0.1% formic acid, pH 3; gradient (min/%B) 0/0 6/0 56/100 60/100
measurementConditions: stereoisomer not certain
# reported LC retention time; entries follow
experimentalReadout: LC retention time

INSERT INTO measurements (compound, experimentalreadout, measvalue) VALUES
  ('COc1ccccc1O [guaiacol]', 'LC retention time', '22.5 min'),
  ('O=C(O)C1OC(Oc2c(-c3ccc(O)c(O)c3)oc3cc(O)cc(O)c3c2=O)C(O)C(O)C1O (stereo unspecified) [quercetin 3-glucuronide]', 'LC retention time', '28.4 min'),
  ('CC(C)=CCCC(C)=CCOC(=O)c1ccccc1 [geranyl benzoate]', 'LC retention time', '51.3 min'),
  ('O=C1c2c(O)cc(O)cc2OC(c2ccc(O)c(O)c2)C1O (stereo unspecified) [taxifolin]', 'LC retention time', '25.3 min'),
  ('N[C@@H](Cc1c[nH]c2ccccc12)C(=O)O [L-tryptophan]', 'LC retention time', '16 min'),
  ('CC12CCC(CC1=O)C2(C)C (stereo unspecified) [camphor]', 'LC retention time', '36.5 min'),
  ('O=C(CO)C(O)C(O)C(O)CO (stereo not drawn) [D(-)fructose]', 'LC retention time', '1.4 min'),
  ('CC(CCC(=O)O)C1CCC2C3C(O)C(O)C4CC(O)CCC4(C)C3CCC12C (stereo unspecified) [Hyocholic acid]', 'LC retention time', '45.6 min'),
  ('CC(C)=CCCC(C)C1CCC2(C)C3=C(CCC12C)C1(C)CCC(O)C(C)(C)C1CC3 (stereo unspecified) [lanosterol]', 'LC retention time', '58.3 min'),
  ('COC(=O)c1cc(O)c(O)c(O)c1 [methyl gallate]', 'LC retention time', '18.2 min'),
  ('CC(C)C(C)C=CC(C)C1CCC2C3=CC=C4CC(O)CCC4(C)C3CCC21C (stereo unspecified) [ergosterol]', 'LC retention time', '58.9 min'),
  ('NCCCC(=O)O [gamma-aminobutyric acid]', 'LC retention time', '2.15 min'),
  ('Oc1ccc(C2Oc3cc(O)c4c(c3C2c2cc(O)cc(O)c2)C2C(c3ccc(O)cc3)c3c(O)cc5c(c3C2C4c2ccc(O)cc2)C(c2cc(O)cc(O)c2)C(c2ccc(O)cc2)O5)cc1 (stereo unspecified) [ampelopsin H]', 'LC retention time', '29.8 min'),
  ('O=c1c(O)c(-c2ccc(O)c(O)c2)oc2cc(O)cc(O)c12 [quercetin]', 'LC retention time', '34 min'),
  ('CC(C)C[C@H](N)C(=O)O [L-leucine]', 'LC retention time', '4.98 min'),
  ('O=C(C=Cc1ccc(O)c(O)c1)OC1C(O)CC(O)(C(=O)O)CC1O (stereo unspecified) [cryptochlorogenic acid]', 'LC retention time', '20.1 min'),
  ('COc1cc(C(=O)O)ccc1O [vanillic acid]', 'LC retention time', '20.3 min'),
  ('O=C(O)CCc1c[nH]c2ccccc12 [indole-3-propionic acid]', 'LC retention time', '30.3 min'),
  ('O=c1cc(-c2ccc(O)cc2)oc2cc(OC3OC(CO)C(O)C(O)C3OC3OCC(O)(CO)C3O)cc(O)c12 (stereo unspecified) [apiin]', 'LC retention time', '29.6 min'),
  ('OCC1OC(Oc2cc(O)cc(C=Cc3ccc(O)cc3)c2)C(O)C(O)C1O (stereo not drawn) [cis-piceid]', 'LC retention time', '27.2 min'),
  ('O=C1CCC(=O)N1O [N-hydroxysuccinimide]', 'LC retention time', '2 min'),
  ('O=C(O)[C@@H]1CCCN1 [L-proline]', 'LC retention time', '1.59 min'),
  ('O=C(O)c1ccc(O)c(O)c1 [protocatechuic acid]', 'LC retention time', '13.9 min'),
  ('CC(=O)NC(Cc1ccc(O)cc1)C(=O)O (stereo unspecified) [N-acetyl tyrosine]', 'LC retention time', '17.4 min'),
  ('CC(=O)NC1C(O)OC(CO)C(O)C1O (stereo unspecified) [N-acetyl-galactosamine]', 'LC retention time', '1.49 min'),
  ('Nc1nc2ncc(CNc3ccc(C(=O)NC(CCC(=O)O)C(=O)O)cc3)nc2c(=O)[nH]1 (stereo unspecified) [folic acid]', 'LC retention time', '21.3 min'),
  ('C=Cc1ccc(O)c(OC)c1 [2-methoxy-4-vinylphenol]', 'LC retention time', '31.3 min'),
  ('CCCCCCCCCCCCCCCCCCC(=O)OC [methyl nonadecanoate]', 'LC retention time', '58.5 min'),
  ('O=c1[nH]c(=O)c2[nH]c(=O)[nH]c2[nH]1 [uric acid]', 'LC retention time', '1.62 min'),
  ('Nc1ccccc1C(=O)CC(N)C(=O)O [L-kynurenine]', 'LC retention time', '11 min'),
  ('O=c1c(OC2OC(CO)C(O)C(O)C2O)c(-c2ccc(O)cc2)oc2cc(O)cc(O)c12 (stereo unspecified) [kaempferol 3-glucoside]', 'LC retention time', '31.2 min'),
  ('COc1cc(-c2[o+]c3cc(O)cc(O)c3cc2OC2OC(CO)C(O)C(O)C2O)ccc1O (stereo unspecified) [peonidin 3-galactoside]', 'LC retention time', '24 min'),
  ('O=c1cc(-c2ccc(O)c(O)c2)oc2cc(OC3OC(CO)C(O)C(O)C3O)cc(O)c12 (stereo unspecified) [luteolin 7-glucoside]', 'LC retention time', '28.1 min'),
  ('O=c1c(-c2ccc(O)cc2)coc2cc(O)cc(O)c12 [genistein]', 'LC retention time', '35.1 min'),
  ('O=C(O)c1c[nH]c2ccccc12 [indole-3-carboxylic acid]', 'LC retention time', '25.6 min'),
  ('Oc1cc(O)c2cc(O)c(-c3ccc(O)c(O)c3)[o+]c2c1 [cyanidin]', 'LC retention time', '28.9 min');
